tested on: MOLT-4; test: NCI tumour cell line growth inhibition, 48 h
Activity calls are given as the source filed them. No stated cut-off is given here; in the data, active = GI50 up to about 1.1 µM and inactive = higher.
I'd be grateful if you could share measured GI50 for these entries.

stdin: Return value of GI50 for input O=C(Nc1c(C(F)(F)F)cc(-c2ccccc2)[nH]c1=O)N1CCOCC1 , no commentary.
stdout: > 100 µM (inactive)

stdin: Give reported GI50 value for COC1(CC[C@H](C)COC2OC(CO)C(O)C(O)C2O)O[C@H]2C[C@H]3[C@@H]4CC=C5C[C@@H](OC6OC(CO)C(O)C(OC7OC(CO)C(O)C(O)C7O)C6OC6OC(C)C(O)C(O)C6O)CC[C@]5(C)[C@H]4CC[C@]3(C)[C@H]2[C@@H]1C (stereo partly specified)
stdout: 3.15 µM (inactive)

stdin: For the molecule N=C(N)NC1C(O)C(O)C(O)C(NC(=N)N)C1O (stereo unspecified) , give its reported GI50.
stdout: > 100 µM (inactive)

stdin: Respond only with GI50 recorded for CC(=O)N1NC(c2ccccc2)=NC(=O)C1c1cc(C)c(O)c(C)c1 (stereo unspecified)
stdout: > 100 µM (inactive)

stdin: Provide measured GI50 value, entry: C=CCCC(=O)N1CCC(C(=O)OCC)C1=O (stereo unspecified)
stdout: > 100 µM (inactive)

stdin: Determine its reported GI50: CC1(C)C/N=C/C(C)(OCc2ccccc2)C(=O)NC(C)(C)C/N=C/C(C)(OCc2ccccc2)C(=O)N1 (stereo unspecified)
stdout: > 10 µM (inactive)

###

system: TK-10; experiment: NCI tumour cell line growth inhibition, 48 h
The source made the active and inactive calls. No stated cut-off is given here; in the data, active = GI50 up to about 1.1 µM and inactive = higher.
reported-property: GI50

stdin: Answer with the recorded GI50 for the compound listed here: CC(=O)O.CN1CCN(CN2C(=O)C3C4C=CC(C3C2=O)C2C3C(=O)N(CN5CCN(C)CC5)C(=O)C3C42)CC1 (centres undefined)
stdout: 45.3 µM (inactive)

stdin: Please give measured GI50 of the following entry: COc1ccc2nc3ccc(OC)cc3c(SCCO)c2c1
stdout: 51.3 µM (inactive)

stdin: Please look at this compound and report its GI50: COc1ccccc1C1Nn2c(nc3ccccc3c2=O)N1c1ccc(C)cc1 (centres undefined)
stdout: 6.41 µM (inactive)

stdin: Identify GI50 associated with the compound CC[N+]1(C)CCC(O)(/C=C/c2ccc(Cl)c(Cl)c2)C(C(=O)/C=C/c2ccc(Cl)c(Cl)c2)C1 (centres undefined)
stdout: 2.43 µM (inactive)

###

system: DMS-114; assay: NCI tumour cell line growth inhibition, 48 h
Active and inactive are the calls of the source. Rule as the data show it: active = GI50 up to about 1.1 µM and inactive = higher.
// allowed return values: active, inactive

stdin: I'd appreciate the recorded outcome for O=C(CNc1ccc2c(=S)c3ccccc3[nH]c2c1)Nc1ccccc1-c1ccccc1NC(=O)CNc1ccc2c(=S)c3ccccc3[nH]c2c1 from this test.
stdout: inactive

stdin: I'd appreciate the recorded outcome for CCCCCCCCCCCCC(Br)C(=O)NCC(N)=O (configuration not stated) from this test.
stdout: inactive

stdin: Give the logged outcome of this assay for the following molecule: COc1ccc(OCC(=O)O)c(C(=O)CCC(=O)O)c1
stdout: inactive

stdin: Give the logged outcome of this assay for the following molecule: O=C1NC(=O)C(CCC(=O)c2ccc3ccccc3c2)C(=O)N1
stdout: inactive

stdin: Status in this test for COc1ccc(NC(=O)c2cc(OC)cc(OC)c2)cc1 ?
stdout: inactive

stdin: Please share the test call associated with CCCCCCCCOCC(O)CO (configuration not stated) .
stdout: inactive

stdin: Assay result, entry CCCCCCCCCCCCCCCCCC(=O)OCC(C[As](=O)(O)O)OC(=O)CCCCCCCCCCCCCCCCC (configuration not stated) — outcome?
stdout: inactive

stdin: Any idea what this test logged for CCN(CC)CCNc1c2ccccc2nc2cccc([N+](=O)[O-])c12 ?
stdout: active

stdin: Which result was noted for this molecule in the test: O=c1c(Cl)c(Cl)cnn1CCc1ccncc1
stdout: inactive

stdin: Which outcome did this test record for the molecule CCC(C)C(=O)O[C@H]1C(=O)O[C@@H]2C[C@H]3C(C)=CC(=O)[C@@H](O)[C@]3(C)[C@H]3[C@@H](O)[C@H](O)[C@@]4(C)OC[C@]32[C@@H]14 (some centres not stated) ?
stdout: active

stdin: Given CCc1cc(CCC(=O)Nc2ccccc2[N+](=O)[O-])nc(S)n1 , state the outcome it received in this test.
stdout: inactive

stdin: Hi, sorry to bother you, what did the test record for C=CCCCn1ccc2ccccc21 ?
stdout: inactive

stdin: Short answer needed: outcome of this test for C[S+](C)CC1OC(n2cnc3c(N)ncnc32)C(O)C1O (configuration not stated) ?
stdout: inactive

stdin: Tell me the recorded outcome of this test for CCOc1ncnc2ccc(Cl)c(I)c12 .
stdout: inactive

stdin: Answer briefly: the call reported for C=CCC1(C(=O)OC(C)(C)C)C(OC)=C(C(=O)OC(C)(C)C)C2C1C(C(=O)OC(C)(C)C)=C(OC)C2(CC=C)C(=O)OC(C)(C)C (configuration not stated) in this assay.
stdout: inactive

stdin: I would be grateful if you could indicate the recorded call for COc1cc2cnc3c4cc(OC)c(OC(C)C)cc4ccc3c2cc1OC .
stdout: inactive

stdin: # lookup: test call for CCC(Oc1ccc(OC)c2ccccc(=O)c12)C(=O)O (configuration not stated)
stdout: inactive
